# Test system: A549 (Human Lung cancer cell line)
# test-details: MTT cytotoxicity assay on lung cancer cells
# Assay type: cell-based
# measurement-parameters: IC50 normal cells (HSF) / IC50 A549
experimental-readout: SI (selectivity index), A549
One number for each entry.

Example results:
INSERT INTO assay_data (compound, measured_result) VALUES
  ('N.N.[Cl][Pt][Cl] [Cisplatin, reference compound]', 4.05),
  ('CC(=O)[O-].CC(=O)[O-].[Cd+2].[Cd+2].[O-]c1ccc2ccccc2c1C=NN=C(O)Cc1ccccc1.[O-]c1ccc2ccccc2c1C=NN=C(O)Cc1ccccc1', 0.09),
  ('O=C(Cc1ccccc1)NN=Cc1c([O-])ccc2ccccc12.O=C(Cc1ccccc1)NN=Cc1c([O-])ccc2ccccc12.[Fe+2]', 0.17);

Now turn to the next compound.
What value of measured SI (selectivity index), A549 is listed for O=C(Cc1ccccc1)NN=Cc1c(O)ccc2ccccc12 ?
3.63

----------
# Tested on: HepG2 (Human Liver cancer cell line)
# test-details: MTT cytotoxicity assay on liver cancer cells
# Assay type: cell-based
# measurement-parameters: IC50 normal cells (HSF) / IC50 HEPG2
Please respond with reported SI (selectivity index), HEPG2 for every item in the list.

Observe how each entry below is paired with its result.
INSERT INTO results (molecule, experimental_readout, measured_result) VALUES
  ('O=C(Cc1ccccc1)NN=Cc1c([O-])ccc2ccccc12.O=C(Cc1ccccc1)NN=Cc1c([O-])ccc2ccccc12.[Fe+2]', 'SI (selectivity index), HEPG2', 0.39),
  ('CC(=O)[O-].CC(=O)[O-].[Cd+2].[Cd+2].[O-]c1ccc2ccccc2c1C=NN=C(O)Cc1ccccc1.[O-]c1ccc2ccccc2c1C=NN=C(O)Cc1ccccc1', 'SI (selectivity index), HEPG2', 1.26),
  ('N.N.[Cl][Pt][Cl] [Cisplatin, reference compound]', 'SI (selectivity index), HEPG2', 3.24);

Moving on to another molecule below.
For O=C(Cc1ccccc1)NN=Cc1c(O)ccc2ccccc12 , what is its reported SI (selectivity index), HEPG2?
2.88

----------
# Tested on: HepG2 (Human Liver cancer cell line)
# test-details: MTT cytotoxicity assay on liver cancer cells
# Type: cell-based
# measurement-parameters: HEPG2 liver carcinoma cells, MTT, 48 h
Record form. Attribute: IC50 (HEPG2). Fill in for each entry.
Give bare numbers, in µg/mL.

Record IC50 (HEPG2) for all entries; do not skip any.
1. CC(=O)[O-].CC(=O)[O-].[Cd+2].[Cd+2].[O-]c1ccc2ccccc2c1C=NN=C(O)Cc1ccccc1.[O-]c1ccc2ccccc2c1C=NN=C(O)Cc1ccccc1
2. C1=[N+]2N=C(Cc3ccccc3)[O][Zn-2]23[O+](c2ccc4ccccc4c21)[Zn-2]12[O]C(Cc4ccccc4)=N[N+]1=Cc1c(ccc4ccccc14)[O+]32.CC(=O)O.CC(=O)O (stereo not shown)
3. O=C(Cc1ccccc1)NN=Cc1c([O-])ccc2ccccc12.O=C(Cc1ccccc1)NN=Cc1c([O-])ccc2ccccc12.[Fe+2]
4. N.N.[Cl][Pt][Cl] [Cisplatin, reference compound]

1. 4.16
2. 32.35
3. 40.73
4. 3.42

# credit: paper PMC11909975
